System: MCF10A
procedure_summary: 5+ nucleoli phenotype percent effect (relative to siNT 0% and siKIF11 100%); higher = more cells with five or more nucleoli
assay_context: 20 nM; 72 h
What 5+ nucleoli phenotype percent effect was measured for each of the following?
Numbers only, in %.

The following sequences have reported results that may help.
- sequence_code: "AGAAGAAGGCGGUCGGUCUGCGG [hsa-miR-3185]"
  5+ nucleoli phenotype percent effect / %: -27.8
- sequence_code: "UGAGCCGAGCUGAGCUUAGCUG [hsa-miR-4537]"
  5+ nucleoli phenotype percent effect / %: -4.47
- sequence_code: "AGAGAUUGGUAGAAAUCAGGU [hsa-miR-5186]"
  5+ nucleoli phenotype percent effect / %: -25.3
- sequence_code: "GAGGUUUGGGGAGGAUUUGCU [hsa-miR-4748]"
  5+ nucleoli phenotype percent effect / %: -23.1
- sequence_code: "GAUGAUGCUGCUGAUGCUG [hsa-miR-1322]"
  5+ nucleoli phenotype percent effect / %: -20.7

Give one value of 5+ nucleoli phenotype percent effect per listed sequence.
1. ACACAGUGCUUCAUCCACUACU [hsa-miR-3681-3p]
2. UGGCGGGGGUAGAGCUGGCUGC [hsa-miR-6787-5p]
3. CAUCCCUUGCAUGGUGGAGGG [hsa-miR-188-5p]

[-3.88, -19.2, 45.6]

For every listed record, write down its 5+ nucleoli phenotype percent effect.
1. GCUCUGACUUUAUUGCACUACU [hsa-miR-301a-5p]
2. CAGGAAGGAUUUAGGGACAGGC [hsa-miR-4476]
3. UUUGGGAUUGACGCCACAUGUCU [hsa-miR-6513-5p]
4. CUGGGAGGUGUGAUAUUGUGGU [hsa-miR-3689c]

[59.9, -8.98, 91.1, -32.9]

* * *

System: MCF10A
procedure_summary: one-nucleolus phenotype percent effect (relative to siNT 0% and siNOL11 100%); higher = more cells with one nucleolus (ribosome biogenesis inhibition)
assay_context: 20 nM; 72 h
measure: one-nucleolus phenotype percent effect (%)
Give bare numbers, in %.

See these solved cases before continuing.
- sequence_code: "AGUUCUUCAGUGGCAAGCUUUA [hsa-miR-22-5p]"
  target_of_assay: "MCF10A"
  unit_text: "%"
  assay_value: 3.93
- sequence_code: "CGGUGAGCGCUCGCUGGC [hsa-miR-4792]"
  target_of_assay: "MCF10A"
  unit_text: "%"
  assay_value: 21.1
- sequence_code: "UGGCUGUUGGAGGGGGCAGGC [hsa-miR-4687-3p]"
  target_of_assay: "MCF10A"
  unit_text: "%"
  assay_value: 25.6
- sequence_code: "CAUUCAACUAGUGAUUGU [hsa-miR-4272]"
  target_of_assay: "MCF10A"
  unit_text: "%"
  assay_value: -23.4
- sequence_code: "UCGUGUCUUGUGUUGCAGCCGG [hsa-miR-187-3p]"
  target_of_assay: "MCF10A"
  unit_text: "%"
  assay_value: -7.21
- sequence_code: "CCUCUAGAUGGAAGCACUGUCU [hsa-miR-517-5p]"
  target_of_assay: "MCF10A"
  unit_text: "%"
  assay_value: 2.26
- sequence_code: "UCUUGAAGUCAGAACCCGCAA [hsa-miR-4635]"
  target_of_assay: "MCF10A"
  unit_text: "%"
  assay_value: 19.8
- sequence_code: "AGCUGUCUGUGUUUUCCUUCUCAG [hsa-miR-6876-3p]"
  target_of_assay: "MCF10A"
  unit_text: "%"
  assay_value: 6.32
- sequence_code: "AAACCGUUACCAUUACUGAGUU [hsa-miR-451a]"
  target_of_assay: "MCF10A"
  unit_text: "%"
  assay_value: -5.64
- sequence_code: "UCCAUGUUUCCUUCCCCCUUCU [hsa-miR-4716-5p]"
  target_of_assay: "MCF10A"
  unit_text: "%"
  assay_value: 45.4

Give measured one-nucleolus phenotype percent effect for every item shown.
1. UGGCCAAAAAGCAGGCAGAGA [hsa-miR-3926]
2. UUGCCUGCCCUCUUCCUCCAG [hsa-miR-6894-3p]
3. CUGGACUGAGCCGUGCUACUGG [hsa-miR-1269a]
4. ACAGGCACGACUGGUUUGGCA [hsa-miR-6715b-5p]

1: 11.5; 2: 22.3; 3: 6.41; 4: 54.7

Please supply one-nucleolus phenotype percent effect for each of the following items, keeping them in order.
1. AAAGAUAGACAAUUGGCUAAAU [hsa-miR-4662a-3p]
2. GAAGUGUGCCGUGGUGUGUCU [hsa-miR-595]
3. CUUCCUCGUCUGUCUGCCCC [hsa-miR-1238-3p]

1. -23.7
2. 12.4
3. 13.2

// input: 5 sequences below; output: one-nucleolus phenotype percent effect for each
1. UCCCCAACCCCUGCCCGCAG [hsa-miR-6793-3p]
2. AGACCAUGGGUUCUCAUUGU [hsa-miR-591]
3. UCAGGACACUUCUGAACUUGGA [hsa-miR-5000-3p]
4. GAGGUUUGGGGAGGAUUUGCU [hsa-miR-4748]
5. GGCUCCUCCUCUCAGGAUGUG [hsa-miR-4268]

1. 13.9
2. -3.76
3. -10.1
4. 39.1
5. -15.6

Batch request: one-nucleolus phenotype percent effect for each of the following sequences.
1. UGAGAACUGACAAAUGUGGUAGG [hsa-miR-7153-5p]
2. CCUCACCCAGCUCUCUGGCCCUCU [hsa-miR-6862-3p]

[-18.9, -26.5]

* * *

Test system: MCF10A
procedure_summary: one-nucleolus phenotype percent effect (relative to siNT 0% and siNOL11 100%); higher = more cells with one nucleolus (ribosome biogenesis inhibition)
assay_context: 20 nM; 72 h
measure: one-nucleolus phenotype percent effect (%)
Answers are plain numbers, in %.

Guide cases for one-nucleolus phenotype percent effect, answers given:
- sequence_code: "GAAGAAUAGGAGGGACUUUGU [hsa-miR-6507-5p]"
  one-nucleolus phenotype percent effect [%]: -12.9
- sequence_code: "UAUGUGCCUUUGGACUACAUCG [hsa-miR-455-5p]"
  one-nucleolus phenotype percent effect [%]: -2.17
- sequence_code: "ACCAGGGCCAGCAGGGAAUGU [hsa-miR-6837-5p]"
  one-nucleolus phenotype percent effect [%]: 33.6
- sequence_code: "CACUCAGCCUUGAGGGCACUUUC [hsa-miR-512-5p]"
  one-nucleolus phenotype percent effect [%]: 16.2
- sequence_code: "UGAGGGGCCUCAGACCGAGCUUUU [hsa-miR-3184-5p]"
  one-nucleolus phenotype percent effect [%]: 5.35
- sequence_code: "CCUGCAGCGACUUGAUGGCUUCC [hsa-miR-1184]"
  one-nucleolus phenotype percent effect [%]: 4.01
- sequence_code: "UGACCUCUCCGCUCCGCACAG [hsa-miR-6821-3p]"
  one-nucleolus phenotype percent effect [%]: 7.28
- sequence_code: "UCCCAAGGGUGAGAUGCUGCCA [hsa-miR-6814-5p]"
  one-nucleolus phenotype percent effect [%]: 7.66

Items follow; give one-nucleolus phenotype percent effect for each.
1. CAUCAUCGUCUCAAAUGAGUCU [hsa-miR-136-3p]
2. GCCCCGGGCAGUGUGAUCAUC [hsa-miR-5587-3p]
3. CACCCGGCUGUGUGCACAUGUGC [hsa-miR-941]

1: -9.83; 2: -20.5; 3: -3.88

* * *

Answer each item with its documented percent viability.
Test system: MCF10A
procedure_summary: percent viability (nuclei count relative to siNT); higher = more viable cells
assay_context: 20 nM; 72 h
One number for each entry, in %.

Here are 5 sequences together with their reported answers.
- sequence_code: "CAGGGCAGGAAGAAGUGGACAA [hsa-miR-4436b-3p]"
  assay_value: 20.5
- sequence_code: "UGAGGGACAGAUGCCAGAAGCA [hsa-miR-3126-5p]"
  assay_value: 16.2
- sequence_code: "AACUGAACCAGGAGUGAGCUUCG [hsa-miR-4724-5p]"
  assay_value: 77.9
- sequence_code: "AGGAGAAGUCGGGAAGGU [hsa-miR-5703]"
  assay_value: 30.6
- sequence_code: "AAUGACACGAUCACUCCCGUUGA [hsa-miR-425-5p]"
  assay_value: 74.9

Hi there! I need percent viability for each item below, if you can.
1. UACCAUUAGAAGAGCUGGAAGA [hsa-miR-6512-5p]
2. CACACAAGUGGCCCCCAACACU [hsa-miR-4731-3p]
3. UUGUGGGGUUGGAGAGCUGGCUG [hsa-miR-6796-5p]
4. UCCAGUGCCCUCCUCUCC [hsa-miR-1825]
5. UGAAGCUCUAAGGUUCCGCCUGC [hsa-miR-3928-5p]
6. UAACGGCCGCGGUACCCUAA [hsa-miR-4485]

1. 78.6
2. 29.9
3. 17.2
4. 70.3
5. 23.8
6. 32.8

Please give percent viability, item by item, for the list that follows.
1. GCAGAUCAGGACUGUAACUCACC [hsa-miR-1288-5p]
2. CAGCCUGACAGGAACAG [hsa-miR-4293]

48.5
33.8

Would you be so kind as to report percent viability for each listed record?
1. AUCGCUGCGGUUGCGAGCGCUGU [hsa-miR-639]
2. ACAGAUUCGAUUCUAGGGGAAU [hsa-miR-10b-3p]
3. UGGGGAGGUGUGGAGUCAGCAU [hsa-miR-6825-5p]
4. UAGGGGGUGGCAGGCUGGCC [hsa-miR-6732-5p]
5. CCUAGAAACUGUAAACUUAGUC [hsa-miR-8067]
6. CUGGGGGACGCGUGAGCGCGAGC [hsa-miR-4665-5p]
7. GACUCACUCACAGGAUUGUGCA [hsa-miR-3680-5p]

129
53.5
22.4
33.3
108
31.2
58.9

For each of the items listed, what is its percent viability?
1. ACACUUGUUGGGAUGACCUGC [hsa-miR-6500-3p]
2. GCUCUGACGAGGUUGCACUACU [hsa-miR-301b-5p]

1: 23.8; 2: 60.8
